The reported measurements were obtained from BindingDB's records for doi:10.1016/j.chembiol.2016.11.007.

A short record of pIC50 observed with Dihydrofolate reductase (Staphylococcus aureus) follows.
pIC50: −log10 of the molar value.
METRIC: pIC50

>  <MOLECULE>
CCc1nc(N)nc(N)c1C#C[C@H](C)c1cc2c(c(-c3ccc(C(=O)O)cc3)c1)OCO2

>  <TARGET UNDER TEST>
Dihydrofolate reductase (Staphylococcus aureus)

>  <OBSERVED MEASUREMENT>
7.77

$$$$
>  <MOLECULE>
CCc1nc(N)nc(N)c1C#C[C@@H](C)c1cc2c(c(-c3ccc(C(=O)O)cc3)c1)OCO2

>  <TARGET UNDER TEST>
Dihydrofolate reductase (Staphylococcus aureus)

>  <OBSERVED MEASUREMENT>
7.74

$$$$
>  <MOLECULE>
CCc1nc(N)nc(N)c1C#CC(C)c1cc2c(c(-c3ccc(C(=O)O)cc3)c1)OCO2 (stereo not drawn)

>  <TARGET UNDER TEST>
Dihydrofolate reductase (Staphylococcus aureus)

>  <OBSERVED MEASUREMENT>
8.00

$$$$

====

A short record of pIC50 observed with Dihydrofolate reductase (Staphylococcus aureus, UniProt Q4H3Y3) follows.
Sequence (Q4H3Y3 whole entry): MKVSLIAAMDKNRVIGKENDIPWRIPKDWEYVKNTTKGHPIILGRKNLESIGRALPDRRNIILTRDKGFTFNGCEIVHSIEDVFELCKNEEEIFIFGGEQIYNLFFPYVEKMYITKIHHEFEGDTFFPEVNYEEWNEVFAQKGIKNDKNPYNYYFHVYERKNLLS
pIC50: −log10 of the molar value.

>  <COMPOUND>
CCc1nc(N)nc(N)c1C#C[C@@H](C)c1cc2c(c(-c3ccc(C(=O)O)cc3)c1)OCO2

>  <pIC50>
6.80

$$$$
>  <COMPOUND>
CCc1nc(N)nc(N)c1C#C[C@H](C)c1cc2c(c(-c3ccc(C(=O)O)cc3)c1)OCO2

>  <pIC50>
6.72

$$$$
>  <COMPOUND>
CCc1nc(N)nc(N)c1C#CC(C)c1cc2c(c(-c3ccc(C(=O)O)cc3)c1)OCO2 (stereo not given)

>  <pIC50>
7.06

$$$$
>  <COMPOUND>
CCc1nc(N)nc(N)c1C#CCc1cc(OC)cc(-c2ccc(C(=O)O)cc2)c1

>  <pIC50>
5.85

$$$$
>  <COMPOUND>
CCc1nc(N)nc(N)c1C#CCc1cc(OC)c(OC)c(-c2ccncc2)c1

>  <pIC50>
6.35

$$$$

====

A short record of pIC50 observed with UniProt P13955 follows.
pIC50: −log10 of the molar value.
METRIC: pIC50

>  <SMILES REPRESENTATION>
CCc1nc(N)nc(N)c1C#CCc1cc(OC)cc(-c2ccc(C(=O)O)cc2)c1

>  <OBSERVED MEASUREMENT>
6.01

$$$$
>  <SMILES REPRESENTATION>
CCc1nc(N)nc(N)c1C#CCc1cc(OC)c(OC)c(-c2ccncc2)c1

>  <OBSERVED MEASUREMENT>
6.44

$$$$
>  <SMILES REPRESENTATION>
CCc1nc(N)nc(N)c1C#C[C@H](C)c1cc2c(c(-c3ccc(C(=O)O)cc3)c1)OCO2

>  <OBSERVED MEASUREMENT>
6.74

$$$$
>  <SMILES REPRESENTATION>
CCc1nc(N)nc(N)c1C#C[C@@H](C)c1cc(OC)cc(-c2ccc(C(=O)O)cc2)c1

>  <OBSERVED MEASUREMENT>
6.39

$$$$

====

- TARGET UNDER TEST: Dihydrofolate reductase (Staphylococcus aureus)
- EXPERIMENT: DHFR Inhibition Assay

>  <COMPOUND>
CCc1nc(N)nc(N)c1C#C[C@H](C)c1cc2c(c(-c3ccc(C(=O)O)cc3)c1)OCO2 [UCP1206]

>  <TARGET UNDER TEST>
Dihydrofolate reductase (Staphylococcus aureus)

>  <IC50, nM>
54

$$$$
>  <COMPOUND>
CCc1nc(N)nc(N)c1C#CC(C)c1cc2c(c(-c3ccc(C(=O)O)cc3)c1)OCO2 (stereo not given) [UCP1191]

>  <TARGET UNDER TEST>
Dihydrofolate reductase (Staphylococcus aureus)

>  <IC50, nM>
41

$$$$
>  <COMPOUND>
CCc1nc(N)nc(N)c1C#CCc1cc(OC)cc(-c2ccc(C(=O)O)cc2)c1 [UCP1175]

>  <TARGET UNDER TEST>
Dihydrofolate reductase (Staphylococcus aureus)

>  <IC50, nM>
170

$$$$
>  <COMPOUND>
CCc1nc(N)nc(N)c1C#C[C@@H](C)c1cc2c(c(-c3ccc(C(=O)O)cc3)c1)OCO2 [UCP1205]

>  <TARGET UNDER TEST>
Dihydrofolate reductase (Staphylococcus aureus)

>  <IC50, nM>
100

$$$$
>  <COMPOUND>
CCc1nc(N)nc(N)c1C#CCc1cc(OC)c(OC)c(-c2ccncc2)c1 [UCP1039]

>  <TARGET UNDER TEST>
Dihydrofolate reductase (Staphylococcus aureus)

>  <IC50, nM>
22

$$$$

====

- TARGET UNDER TEST: Dihydrofolate reductase type 1 from Tn4003 (Staphylococcus aureus)
- Sequence (P13955 whole entry): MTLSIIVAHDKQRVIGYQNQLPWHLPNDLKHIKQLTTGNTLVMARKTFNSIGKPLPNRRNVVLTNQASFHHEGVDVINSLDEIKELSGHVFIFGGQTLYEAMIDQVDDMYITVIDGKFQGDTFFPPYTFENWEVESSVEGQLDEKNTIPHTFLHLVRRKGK
# IC50 values compiled below

>  <COMPOUND>
CCc1nc(N)nc(N)c1C#C[C@@H](C)c1cc2c(c(-c3ccc(C(=O)O)cc3)c1)OCO2

>  <IC50, nM>
340

$$$$
>  <COMPOUND>
CCc1nc(N)nc(N)c1C#C[C@@H](C)c1cc(-c2ccc(C(=O)O)cc2)ccc1OC

>  <IC50, nM>
8800

$$$$
>  <COMPOUND>
CCc1nc(N)nc(N)c1C#C[C@H](C)c1cc(OC)cc(-c2ccc(C(=O)O)cc2)c1

>  <IC50, nM>
270

$$$$
>  <COMPOUND>
CCc1nc(N)nc(N)c1C#CC(C)c1cc2c(c(-c3ccc(C(=O)O)cc3)c1)OCO2 (centres undefined)

>  <IC50, nM>
320

$$$$
